The origin of these recorded values is patent US11566022B2.

Measured DC50, listed per entry for reference.
tested on: HiBit-WIZ fusion protein (Homo sapiens, UniProt O95785+Q96SW2)
Sequence (O95785 whole entry, the tested form may be a part): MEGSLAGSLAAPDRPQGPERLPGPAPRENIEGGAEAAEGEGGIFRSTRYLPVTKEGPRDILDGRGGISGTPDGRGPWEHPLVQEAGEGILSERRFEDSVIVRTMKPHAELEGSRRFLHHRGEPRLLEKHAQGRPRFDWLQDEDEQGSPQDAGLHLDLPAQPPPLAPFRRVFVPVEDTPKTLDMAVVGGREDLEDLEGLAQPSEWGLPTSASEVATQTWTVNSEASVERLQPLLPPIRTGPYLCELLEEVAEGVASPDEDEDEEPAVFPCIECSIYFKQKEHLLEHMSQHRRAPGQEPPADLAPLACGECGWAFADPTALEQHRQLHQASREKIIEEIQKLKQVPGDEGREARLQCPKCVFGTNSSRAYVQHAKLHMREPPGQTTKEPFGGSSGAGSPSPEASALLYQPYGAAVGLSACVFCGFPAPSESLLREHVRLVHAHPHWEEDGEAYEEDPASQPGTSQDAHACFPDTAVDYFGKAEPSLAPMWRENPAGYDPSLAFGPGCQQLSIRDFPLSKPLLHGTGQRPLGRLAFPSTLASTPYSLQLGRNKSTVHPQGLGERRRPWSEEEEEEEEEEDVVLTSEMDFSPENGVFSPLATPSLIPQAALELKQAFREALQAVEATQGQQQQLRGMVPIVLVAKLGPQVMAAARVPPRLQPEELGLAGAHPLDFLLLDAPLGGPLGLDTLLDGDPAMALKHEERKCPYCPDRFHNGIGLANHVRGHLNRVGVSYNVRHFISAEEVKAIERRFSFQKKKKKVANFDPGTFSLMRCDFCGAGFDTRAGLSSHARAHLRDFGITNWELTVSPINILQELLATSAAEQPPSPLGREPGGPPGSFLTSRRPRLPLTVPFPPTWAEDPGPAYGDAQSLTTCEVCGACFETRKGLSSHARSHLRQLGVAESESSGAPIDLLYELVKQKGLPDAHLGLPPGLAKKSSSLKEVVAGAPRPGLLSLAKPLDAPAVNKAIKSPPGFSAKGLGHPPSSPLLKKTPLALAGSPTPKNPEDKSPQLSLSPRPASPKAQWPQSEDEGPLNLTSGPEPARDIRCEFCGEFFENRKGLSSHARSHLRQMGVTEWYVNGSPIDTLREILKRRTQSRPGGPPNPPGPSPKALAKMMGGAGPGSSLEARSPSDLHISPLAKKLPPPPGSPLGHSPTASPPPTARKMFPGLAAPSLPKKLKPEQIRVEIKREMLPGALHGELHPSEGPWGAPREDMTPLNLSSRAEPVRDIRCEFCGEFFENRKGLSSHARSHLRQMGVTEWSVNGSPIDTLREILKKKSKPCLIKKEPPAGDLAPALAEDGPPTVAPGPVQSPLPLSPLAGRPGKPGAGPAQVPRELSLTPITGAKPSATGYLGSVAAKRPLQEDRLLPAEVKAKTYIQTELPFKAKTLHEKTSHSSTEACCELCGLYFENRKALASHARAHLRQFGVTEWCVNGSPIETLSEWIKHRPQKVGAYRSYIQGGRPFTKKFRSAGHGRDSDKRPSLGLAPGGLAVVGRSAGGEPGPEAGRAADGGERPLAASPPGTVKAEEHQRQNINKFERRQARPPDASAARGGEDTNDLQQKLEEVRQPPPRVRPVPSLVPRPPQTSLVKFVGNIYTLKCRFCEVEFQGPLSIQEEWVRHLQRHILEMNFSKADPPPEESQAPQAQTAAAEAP
Sequence (Q96SW2 whole entry, the tested form may be a part): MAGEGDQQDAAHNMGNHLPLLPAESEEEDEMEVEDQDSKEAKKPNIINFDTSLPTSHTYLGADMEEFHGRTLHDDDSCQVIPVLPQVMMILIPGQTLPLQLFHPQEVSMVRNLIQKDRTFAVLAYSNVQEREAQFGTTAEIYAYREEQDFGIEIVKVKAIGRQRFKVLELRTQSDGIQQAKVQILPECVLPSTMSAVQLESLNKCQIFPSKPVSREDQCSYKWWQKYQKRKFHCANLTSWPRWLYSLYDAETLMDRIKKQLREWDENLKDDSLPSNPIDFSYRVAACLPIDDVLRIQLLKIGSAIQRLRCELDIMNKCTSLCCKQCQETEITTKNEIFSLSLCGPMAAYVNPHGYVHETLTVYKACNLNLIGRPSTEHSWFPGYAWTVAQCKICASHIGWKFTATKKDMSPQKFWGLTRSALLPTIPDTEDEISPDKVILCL
Sequence (Q16531 whole entry partner, the tested form may be a part): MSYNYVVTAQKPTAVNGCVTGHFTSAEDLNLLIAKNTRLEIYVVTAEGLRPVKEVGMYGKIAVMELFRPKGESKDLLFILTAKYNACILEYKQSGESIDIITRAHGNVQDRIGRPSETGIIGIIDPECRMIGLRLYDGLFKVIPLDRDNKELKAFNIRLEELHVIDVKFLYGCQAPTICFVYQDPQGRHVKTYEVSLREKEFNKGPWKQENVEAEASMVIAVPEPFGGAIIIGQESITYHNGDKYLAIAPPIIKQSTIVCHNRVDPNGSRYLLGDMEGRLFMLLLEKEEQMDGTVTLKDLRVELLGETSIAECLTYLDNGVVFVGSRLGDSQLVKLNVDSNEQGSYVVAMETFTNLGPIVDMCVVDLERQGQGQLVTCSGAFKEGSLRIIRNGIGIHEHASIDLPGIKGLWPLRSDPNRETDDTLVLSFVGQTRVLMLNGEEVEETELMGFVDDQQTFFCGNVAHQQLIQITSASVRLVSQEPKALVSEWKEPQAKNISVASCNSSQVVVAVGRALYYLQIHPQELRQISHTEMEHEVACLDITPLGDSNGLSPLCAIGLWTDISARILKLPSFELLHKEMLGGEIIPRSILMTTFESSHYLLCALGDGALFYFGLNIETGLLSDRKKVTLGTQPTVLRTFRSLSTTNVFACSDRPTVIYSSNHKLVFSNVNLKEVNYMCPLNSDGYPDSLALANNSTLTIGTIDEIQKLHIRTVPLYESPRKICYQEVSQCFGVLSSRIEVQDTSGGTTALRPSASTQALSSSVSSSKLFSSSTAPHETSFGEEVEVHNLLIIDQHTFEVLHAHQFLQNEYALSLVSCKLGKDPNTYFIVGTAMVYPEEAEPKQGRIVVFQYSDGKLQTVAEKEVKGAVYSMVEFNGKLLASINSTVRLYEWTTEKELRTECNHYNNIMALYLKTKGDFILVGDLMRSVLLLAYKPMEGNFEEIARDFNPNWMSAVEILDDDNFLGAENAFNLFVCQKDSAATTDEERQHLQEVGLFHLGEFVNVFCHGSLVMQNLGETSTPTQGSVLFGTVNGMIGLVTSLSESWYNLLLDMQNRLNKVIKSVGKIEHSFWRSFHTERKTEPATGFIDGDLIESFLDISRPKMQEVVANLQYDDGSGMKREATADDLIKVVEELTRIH
method summary: Quantification of WIZ protein levels in HiBit tag fusion protein assay (WIZ HiBit assay in 293T cells)
Assay type: cell-based
experimental conditions: WIZ HiBit assay in 293T cells; 10-point, 5-fold dose response, highest concentration 25 μM, about 18 hours; read-out: WIZ AC50

compound	DC50
O=C1CCC(N2Cc3cc(OC[C@H]4CCCCN4Cc4cnn(-c5cnccn5)c4)ccc3C2=O)C(=O)N1 (some centres unmarked) [Compound I-50ct]	0.133 µM
COc1ccncc1C(=O)N1CCCC[C@H]1COc1ccc2c(c1)CN(C1CCC(=O)NC1=O)C2=O (some centres unmarked) [Compound I-72bc]	> 25 µM
O=C1CCC(N2Cc3cc(OC[C@H]4CCCCN4Cc4ccnc5[nH]ccc45)ccc3C2=O)C(=O)N1 (some centres unmarked) [Compound I-50dk]	0.147 µM
Cn1cncc1CN1CCCC[C@@H]1COc1ccc2c(c1)CN(C1CCC(=O)NC1=O)C2=O (some centres unmarked) [Compound I-50df]	11.1 µM
CCc1ocnc1C(=O)N1CCCC[C@H]1COc1ccc2c(c1)CN(C1CCC(=O)NC1=O)C2=O (some centres unmarked) [Compound I-72ah]	> 25 µM
Cc1nc(C(=O)N2CCCC[C@H]2COc2ccc3c(c2)CN(C2CCC(=O)NC2=O)C3=O)c(C)s1 (some centres unmarked) [Compound I-72fp]	> 25 µM
O=C1CCC(N2Cc3cc(OC[C@@H]4CCCCN4C(=O)c4cccc(N5CCCCC5)n4)ccc3C2=O)C(=O)N1 (some centres unmarked) [Compound I-72av]	> 25 µM
Cc1nnsc1CN1CCCC[C@H]1COc1ccc2c(c1)CN(C1CCC(=O)NC1=O)C2=O (some centres unmarked) [Compound I-50at]	> 25 µM
CCN1CCC(c2ccccc2CN2CCCC[C@@H]2COc2ccc3c(c2)CN(C2CCC(=O)NC2=O)C3=O)CC1 (some centres unmarked) [Compound I-124]	0.04 µM
Nc1ncc(CN2CCCC[C@H]2COc2ccc3c(c2)CN(C2CCC(=O)NC2=O)C3=O)cn1 (some centres unmarked) [Compound I-50be]	> 25 µM
N#Cc1ccccc1CN1CCCC[C@H]1COc1ccc2c(c1)CN(C1CCC(=O)NC1=O)C2=O (some centres unmarked) [Compound I-50h]	13.6 µM
O=C1CCC(N2Cc3cc(OC[C@@H]4CCCCN4Cc4cnn(Cc5ccccc5)c4)ccc3C2=O)C(=O)N1 (some centres unmarked) [Compound I-50ck]	0.766 µM
O=C1CCC(N2Cc3cc(OC[C@H]4CCCCN4CC4CCOC4)ccc3C2=O)C(=O)N1 (single isomer, unassigned) [Compound I-211]	0.15 µM
CC(C)N1CCC(CN2CCCC[C@H]2COc2ccc3c(c2)CN(C2CCC(=O)NC2=O)C3=O)CC1 (some centres unmarked) [Compound I-50cb]	5.8 µM
